- MEASURED_TARGET: furin, P09958;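 also: purified furin at 1:10 enzyme:substrate in 50 mM HEPES pH 7.5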
- Sequence (P09958 whole entry): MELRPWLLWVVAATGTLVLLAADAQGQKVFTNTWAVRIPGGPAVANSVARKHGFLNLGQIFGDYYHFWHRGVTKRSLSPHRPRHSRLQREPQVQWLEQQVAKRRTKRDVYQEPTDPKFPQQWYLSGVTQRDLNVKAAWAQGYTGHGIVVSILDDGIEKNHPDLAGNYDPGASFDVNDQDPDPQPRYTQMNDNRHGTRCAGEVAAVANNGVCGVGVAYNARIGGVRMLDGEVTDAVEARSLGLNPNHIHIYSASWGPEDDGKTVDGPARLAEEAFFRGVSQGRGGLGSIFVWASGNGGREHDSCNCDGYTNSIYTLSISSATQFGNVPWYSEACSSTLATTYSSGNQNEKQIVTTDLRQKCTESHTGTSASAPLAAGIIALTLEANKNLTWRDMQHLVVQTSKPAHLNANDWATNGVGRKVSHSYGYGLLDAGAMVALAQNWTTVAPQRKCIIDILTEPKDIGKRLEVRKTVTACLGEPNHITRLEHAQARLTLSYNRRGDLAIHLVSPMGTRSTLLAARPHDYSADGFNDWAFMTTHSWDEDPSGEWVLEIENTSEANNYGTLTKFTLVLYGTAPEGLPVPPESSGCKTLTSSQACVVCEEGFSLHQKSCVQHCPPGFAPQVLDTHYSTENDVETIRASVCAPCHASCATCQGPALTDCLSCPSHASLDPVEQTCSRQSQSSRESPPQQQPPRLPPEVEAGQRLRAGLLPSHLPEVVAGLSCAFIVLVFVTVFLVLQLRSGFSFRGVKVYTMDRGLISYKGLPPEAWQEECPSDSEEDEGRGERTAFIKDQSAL
- ASSAY_EXPLANATION: furin cleavage Z-score vs untreated control; higher = more cleavage, active = 3.5 or more, inactive = 1 or less, 8 variable residues between constant flanks
- PARTICULARS: 7.5 min
This is one part of the list. The hit rate among all sequences tested is not known here.
I'd appreciate it if you could supply furin cleavage Z-score values for the items below.

Field: example entries. Status: answers known.
INSERT INTO measurements (polymer_sequence, quantity_measured, value_reported) VALUES
  ('CATTPCWGSWAGNASASA [HC67]', 'furin cleavage Z-score', '0.261 (inactive)'),
  ('CALTHPVTKYAGNASASA [HC979]', 'furin cleavage Z-score', '-1.06 (inactive)'),
  ('CAGSCRRARSAGNASASA [FS-1333]', 'furin cleavage Z-score', '8.24 (active)'),
  ('CAAHWGVLAGAGNASASA [HC336]', 'furin cleavage Z-score', '-1.27 (inactive)'),
  ('CANHVSPTHYAGNASASA [HC1124]', 'furin cleavage Z-score', '-0.962 (inactive)'),
  ('CASTPCSEHLAGNASASA [HC2532]', 'furin cleavage Z-score', 1.63),
  ('CACDECHSTDAGNASASA [HC818]', 'furin cleavage Z-score', '0.0668 (inactive)'),
  ('CATTPCMGSWAGNASASA [HC68]', 'furin cleavage Z-score', 1.12),
  ('CAGRRLARGSAGNASASA [HC1254]', 'furin cleavage Z-score', 3.43),
  ('CAEVVTSTSVAGNASASA [HC2237]', 'furin cleavage Z-score', '0.559 (inactive)');

Your task in this section: give furin cleavage Z-score for each listed record.
1. CATTPCIGSWAGNASASA [HC65]
2. CAYGRRRRRSAGNASASA [FS-519]
3. CAANVRRKRYAGNASASA [FS-643]
4. CAPYILKRGSAGNASASA [NG2]
5. CACSLTPPHSAGNASASA [HC1415]

0.499 (inactive)
9.52 (active)
12.5 (active)
1.17
-1.29 (inactive)
